# Tested on: HIV-1/EBOV pseudovirus
# recordedConditions: read-out: IC50 (anti-HIV-1/EBOV)
measurementLabel: IC50 (nM)
Give bare numbers, in nM.

Record CN(C)Cc1ccc(-c2cc3cc(Br)ccc3nc2OCc2ccc(Cl)cc2)cc1 [SYL1712] / HIV-1/EBOV pseudovirus, IC50 recorded as 950

###

Would you kindly list Inhibition HIV/LASV for each of these compounds?
# Test system: HIV-1/LASV pseudovirus
# measurementProtocol: microbe, parasite or virus in culture
# Type: cell-based
# recordedConditions: 10 µM
Numbers only, in %.

Consider the worked cases shown below.
CN(C)Cc1ccc(-c2cc3cc(Br)ccc3nc2Oc2ccccc2)cc1    19.98
CNCCNCc1ccc(-c2cc3cc(Br)ccc3nc2OCc2cccc3ccccc23)cc1    97.63
CN1CCC(c2ccccc2)(C(O)(c2ccccc2)c2ccccc2)CC1    72.11

Go through the list and state Inhibition HIV/LASV for each entry.
1. CN(C)Cc1cccc(-c2cc3ccccc3nc2Oc2cccc3ccccc23)c1
2. COc1nc2ccccc2cc1C(c1ccccc1)n1c(=O)n(CCN(C)C)c2ccccc21 (centres unmarked)

Response:
1: 81.65; 2: 85.88

###

# measurementProtocol: in vitro
# recordedConditions: human
measurementLabel: CC50 (µM)
Numbers only, in µM.

Reference set, count: 3
COc1cccc(COc2nc3ccc(Br)cc3cc2-c2cccc(CN(C)C)c2)c1    215
COc1nc2ccccc2cc1C(c1ccccc1)C(O)(CC(=O)N(C)C)c1cccc2ccccc12 (stereo not drawn)    152
COc1ccc(CC(O)(c2ccccc2CN(C)C)c2cc3cc(Br)ccc3nc2OC)cc1 (stereo not drawn)    132

Dear colleague, could you send me CC50 for each of the items below? Thanks.
1. Brc1ccc2nc(OCc3cccc4ccccc34)c(-c3ccc(CNC45CC6CC(CC(C6)C4)C5)cc3)cc2c1
2. CN(C)Cc1ccc(-c2cc3cc(Br)ccc3nc2-n2ccnc2)cc1

Response:
1: 235; 2: 242

For every listed record, write down its CC50.
1. COC1=Nc2ccccc2C(C2(c3ccccc3)CCN(C)CC2)C1C(=O)c1ccccc1 (stereo not drawn)
2. COc1nc2ccc(Br)cc2cc1C(O)(CCc1ccccc1)c1ccccc1CN(C)C (stereo not drawn)
3. COc1nc2ccccc2cc1C(O)(Cc1cccc(F)c1)c1ccccc1CN(C)C (stereo not drawn)

Response:
1. 185
2. 222
3. 190

The measured CC50 associated with Brc1ccc2nc(OCc3cccc4ccccc34)c(-c3cnn(C4CCCCO4)c3)cc2c1 (stereo not drawn) reads 110

###

# Test system: HIV-1/LASV pseudovirus
# measurementProtocol: microbe, parasite or virus in culture
# Assay type: cell-based
# recordedConditions: 10 µM
We use 90% as the dividing line for Inhibition HIV/LASV: on or above the line is 1, below is -1.

Known results for molecules:
COc1nc2ccccc2cc1C(Nc1ccccc1NCCN(C)C)c1ccccc1 (stereo not drawn) [SYL1621]    1
Brc1ccc2nc(OCc3cccc4ccccc34)c(-c3ccc(CN4CCOCC4)cc3)cc2c1 [SYL1708]    -1
CN(C)Cc1ccc(-c2cc3ccccc3nc2OCc2cccc3ccccc23)cc1 [SYL1701]    1
C[N+](C)(C)Cc1ccc(-c2cc3cc(Br)ccc3nc2OCc2cccc3ccccc23)cc1.[I-] [SYL1685]    1

Prompt: I'd appreciate it if you could say whether CN(C)Cc1ccc(-c2cc3cc(Br)ccc3nc2N2CCCCC2)cc1 [SYL1714] has Inhibition HIV/LASV at least equal to 90%.
Response: -1

###

Give Inhibition HIV/LASV for every item shown.
# Test system: HIV-1/LASV pseudovirus
# measurementProtocol: microbe, parasite or virus in culture
# Format: cell-based
# recordedConditions: 10 µM
Numbers only, in %.

CC(=NOCCN(C)C)c1cc2ccccc2nc1Oc1cccc2ccccc12 [SYL1626]    85.39
CN(C)Cc1cccc(-c2cc3cc(Br)ccc3nc2OCc2cccc3ccccc23)c1 [SYL1638]    99.18
COc1nc2ccccc2cc1C(O)(Cc1cccc(F)c1)c1ccccc1 (stereo not drawn) [SYL1651]    89.23
COc1cc(CN(C)C)ccc1-c1cc2cc(Br)ccc2nc1OCc1cccc2ccccc12 [SYL1716]    99.34
CN(C)CCN1CCN(Cc2ccc(-c3cc4cc(Br)ccc4nc3OCc3cccc4ccccc34)cc2)CC1 [SYL1688]    88.12

Okay, here is my list. What is Inhibition HIV/LASV for each of these?
1. CN(C)Cc1ccc(-c2cc3cc(Br)ccc3nc2OCc2c(F)cccc2F)cc1 [SYL1693]
2. CN(C)CCOc1nc2ccc(Br)cc2cc1-c1ccc(CN(C)C)cc1 [SYL1723]
3. COc1ccc2nc(OCc3cccc4ccccc34)c(-c3ccc(CN(C)C)cc3)cc2c1 [SYL1702]
4. CN(C)CCNc1nc2ccc(Br)cc2cc1-c1ccc(CN(C)C)cc1 [SYL1721]

Response:
1. 99.04
2. 97.12
3. 89.93
4. 99.50

###

# Tested on: HIV-1/LASV pseudovirus
# measurementProtocol: microbe, parasite or virus in culture
# Assay type: cell-based
# recordedConditions: 10 µM
Define the label as label 1 when Inhibition HIV/LASV is strictly less than 90% and as label 0 in all remaining cases.

COc1nc2ccc(Br)cc2cc1C(c1ccccc1)C1(OC(=O)c2ccccc2)CCN(C)CC1 (stereo not shown)    label 1
COc1nc2ccc(Br)cc2cc1C(c1ccccc1)N(CCN(C)C)c1cccc2ccccc12 (stereo not shown)    label 1
CN(C)CCCC(O)(c1ccccc1)c1cc2ccccc2nc1Oc1cccc2ccccc12 (stereo not shown)    label 0

Prompt: State whether 90% exceeds Inhibition HIV/LASV recorded for `CN(C)C(=O)c1cccc(-c2cc3ccccc3nc2Oc2cccc3ccccc23)c1` .
Response: label 1

Prompt: Identify whether the compound `CN(C)C(=O)Cc1ccc(-c2cc3cc(Br)ccc3nc2OCc2cccc3ccccc23)cc1` records Inhibition HIV/LASV below 90%.
Response: label 1

Prompt: Quick check: Inhibition HIV/LASV of `CN(C)Cc1ccc(-c2cc3cc(Br)ccc3nc2OCc2ccc(-c3ccccc3)cc2)cc1` under 90%?
Response: label 1

Prompt: is_below(Inhibition HIV/LASV, 90%) for CN(C)Cc1ccccc1C(O)c1cc2cc(Br)ccc2nc1OCc1cccc2ccccc12 (stereo not shown) ?
Response: label 0

###

# measurementProtocol: in vitro
# recordedConditions: human
measurementLabel: viability at 10 µM (%)
One number for each entry, in %.

Here's what some known entries look like.
CN(C)Cc1ccc(-c2cc3cc(Br)ccc3nc2-n2ccnc2)cc1 [SYL1711]    90.7
Brc1ccc2nc(OCc3cccc4ccccc34)c(-c3ccc(CNC45CC6CC(CC(C6)C4)C5)cc3)cc2c1 [SYL1683]    104
CN(C)Cc1ccc(-c2cc3cc(Br)ccc3nc2OCc2ccc(Cl)cc2)cc1 [SYL1712]    96.9
COc1nc2ccccc2cc1C(O)(Cc1cccc(F)c1)c1ccccc1CN(C)C (stereo not shown) [SYL1640]    97.6

Value sought for every listed molecule: viability at 10 µM.
1. COc1ccc(CC(O)(c2ccccc2CN(C)C)c2cc3cc(Br)ccc3nc2OC)cc1 (stereo not shown) [SYL1655]
2. COc1cccc(COc2nc3ccc(Br)cc3cc2-c2cccc(CN(C)C)c2)c1 [SYL1657]
3. COc1nc2ccc(Br)cc2cc1C(O)(CCc1ccccc1)c1ccccc1CN(C)C (stereo not shown) [SYL1654]
4. COc1nc2ccccc2cc1C(c1ccccc1)C(O)(CC(=O)N(C)C)c1cccc2ccccc12 (stereo not shown) [SYL1642]
5. COC1=Nc2ccccc2C(C2(c3ccccc3)CCN(C)CC2)C1C(=O)c1ccccc1 (stereo not shown) [SYL1660]
6. Brc1ccc2nc(OCc3cccc4ccccc34)c(-c3cnn(C4CCCCO4)c3)cc2c1 (stereo not shown) [SYL1658]

Response:
[95.3, 93.9, 94.7, 72.3, 106, 72.7]

###

# System: EBOV Mayinga isolate (EBOV-GFP)
# measurementProtocol: microbe, parasite or virus in culture
# Format: cell-based, Ebola virus
# recordedConditions: read-out: IC50 against replication of infectious EBOV
measurementLabel: IC50

Simply: `CN(C)Cc1ccc(-c2cc3cc(Br)ccc3nc2OCc2ccc(Cl)cc2)cc1` , EBOV Mayinga isolate (EBOV-GFP), IC50 = 1990 nM

###

# Test system: A549 cells
# recordedConditions: 10 µM
For each entry below, report its Cell Viability value.
Answers are plain numbers, in %.

Worked examples, 8 compounds total:
Fc1cccc(COc2nc3ccc(Br)cc3cc2-c2cccc(-c3ncco3)c2)c1    81.60
COc1ccc(COc2nc3ccc(Br)cc3cc2-c2ccc(CN(C)C)cc2)cc1    82.99
CN(C)CCN1CCN(Cc2ccc(-c3cc4cc(Br)ccc4nc3OCc3cccc4ccccc34)cc2)CC1    80.00
CN1CCN(c2ccc(-c3cc4cc(Br)ccc4nc3OCc3cccc4ccccc34)cc2)CC1    82.47
COc1ccccc1COc1nc2ccc(Br)cc2cc1-c1ccc(CN(C)C)cc1    86.34
COc1cccc(COc2nc3ccc(Br)cc3cc2-c2ccc(CN(C)C)cc2)c1    80.79
C[N+](C)(C)Cc1ccc(-c2cc3cc(Br)ccc3nc2OCc2cccc3ccccc23)cc1.[I-]    103.42
CN(C)CCCC(O)(c1ccccc1)c1cc2ccccc2nc1Oc1cccc2ccccc12 (stereo not shown)    11.15

Answer for every listed entry: what is its Cell Viability? The entries follow.
1. CN(C)C(=O)c1cccc(-c2cc3ccccc3nc2Oc2cccc3ccccc23)c1
2. CN1CCN(c2ccc(-c3cc4cc(Br)ccc4nc3OCc3cccc4ccccc34)cn2)CC1
3. COc1ccc(CC(O)(c2ccccc2CN(C)C)c2cc3cc(OC)ccc3nc2OC)cc1 (stereo not shown)
4. COc1nc2ccccc2cc1C(O)(Cc1cccc(F)c1)c1ccccc1CN1CCOCC1 (stereo not shown)
5. CN(C)Cc1cccc(-c2cc3cc(Br)ccc3nc2Sc2cccc(O)c2)c1
6. COc1nc2ccc(Br)cc2cc1C(c1ccccc1)N1CCN(C)c2ccccc21 (stereo not shown)
7. CN(C)Cc1ccc(-c2cc3cc(Br)ccc3nc2Oc2ccc(OCc3ccccc3)cc2)cc1
8. CN(C)Cc1ccc(-c2cc3cc(Br)ccc3nc2SCc2ccccc2)cc1

Response:
[83.55, 78.11, 89.15, 79.06, 2.71, 86.44, 107.16, 105.32]

Provide Cell Viability for all items below, preserving their order.
1. CN(C)Cc1ccccc1C(O)c1cc2cc(Br)ccc2nc1OCc1cccc2ccccc12 (stereo not shown)
2. CN(C)CCN1CCN(c2ccc(-c3cc4cc(Br)ccc4nc3OCc3cccc4ccccc34)cc2)CC1
3. COc1nc2ccc(Br)cc2cc1C(c1ccccc1)n1cc(CN(C)C)c2ccccc21 (stereo not shown)

Response:
1: 61.30; 2: 1.97; 3: 90.62
